Biological target: LXRα (Homo sapiens, UniProt Q13133)
Sequence (Q13133 209-447 limits assumed): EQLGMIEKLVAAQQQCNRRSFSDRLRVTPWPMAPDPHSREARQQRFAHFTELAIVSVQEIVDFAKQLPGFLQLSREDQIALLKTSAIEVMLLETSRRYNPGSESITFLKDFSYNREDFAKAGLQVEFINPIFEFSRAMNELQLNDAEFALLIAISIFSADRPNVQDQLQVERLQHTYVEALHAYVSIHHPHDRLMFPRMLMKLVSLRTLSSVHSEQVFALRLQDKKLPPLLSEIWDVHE
Test: Gal4-LXRα co-transfection promoter-reporter assay
Conditions: HEK293T cells, read-out: LXR agonist activity EC50
Experimental: FIGS. 1A to 1E: Pan modulator with poly-pharmacology. […] FIG. 1D is a graph showing PPARγ target genes (aP2 and CD36) expression in OP9 cells with and without MDI (IBMX, dexamethasone, insulin) treatment. […] Reporter gene assays: Twenty-four hours before transfection, HEK293T cells were plated in 96-well plates at a density of 15×10^3 cells per well. […] Twenty-four hours after treatment, the luciferase activity was measured using the Dual-Glo luciferase assay system (Promega). […]
Consider the following compounds; for each one, report its pEC50.
Give bare numbers, as −log10 of the molar value.

COMPOUND: O=C(O)Cc1cccc(OCCCN(Cc2cccc(C(F)(F)F)c2Cl)CC(c2ccccc2)c2ccccc2)c1 [GW3965, reference compound]
pEC50: 6.81

Let us move to another entry and its pEC50.
GET /values?readout=pEC50&item= "Cc1cc(CN2CCN(Cc3ccncc3)CC2)ccc1-c1ccc(C(O)(C(F)(F)F)C(F)(F)F)cc1" 6.16

Cited source: patent US12370193B2
